test system: PfAP2-EXP AP2 domain (GST-tagged); assay: gcPBM binding intensity (ln(normalized median fluorescence intensity)); higher = stronger DNA binding
Over roughly 25,000 sequences, “ln(normalized median fluorescence intensity)” has its median near 8.6; the highest 2% begin near 10. The full list was thinned out, with the highest values kept by preference.
Reported gcPBM binding intensity (ln) values for a set of sequences

| macromolecule_sequence | gcPBM binding intensity (ln) |
| --- | --- |
| ATAAATATGGAGCACACACACATAAACATACATATA [CACACA_site421] | 8.84 |
| ATAATATTAGTAAACACACTCAAATTATATATGATA [CACACA_site5721] | 8.28 |
| GGATTCAAAAAAAAAAATAAAAGTAAATAATAAATA [TGCATGCA_negctrl_site348] | 8.27 |
| TATATATCGCATAAAACACACAAAAAAAAAATTAAA [CACACA_site7767] | 8.35 |
| TTATTTAACGTATTCTCACACATATATATATATAAT [CACACA_site5226] | 8.64 |
